Molecular target: T1, human Trop-2-His protein (human, UniProt P09758 27-274)
T1 construct: extracellular domain; Assay paragraphs say only 'Trop-2-His'; also called hTrop-2; Kactus Cat #TRP-HM121; not shown: His tag
T1 sequence (looked up): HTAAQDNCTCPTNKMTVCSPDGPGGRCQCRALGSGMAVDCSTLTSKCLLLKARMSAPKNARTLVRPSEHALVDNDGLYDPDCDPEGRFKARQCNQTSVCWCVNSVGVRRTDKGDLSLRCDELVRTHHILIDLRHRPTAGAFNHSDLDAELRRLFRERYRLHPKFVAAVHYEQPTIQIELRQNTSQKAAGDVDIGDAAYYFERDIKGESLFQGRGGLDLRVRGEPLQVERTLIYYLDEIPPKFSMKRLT
Assay: ELISA, coated Trop-2 protein
READOUT LABEL: EC50 (nM)
Please state the figure in nM; there is no need to write the unit.

Record excerpt, results attached:
{"columns": ["BINDER", "READOUT LABEL", "REPORTED RESULT"],
 "data": [
  ["5D4-1 (antibody, V domains shown) VH: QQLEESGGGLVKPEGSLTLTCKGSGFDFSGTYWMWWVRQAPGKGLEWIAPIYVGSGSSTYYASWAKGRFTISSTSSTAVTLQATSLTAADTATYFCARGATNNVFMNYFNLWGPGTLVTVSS VL: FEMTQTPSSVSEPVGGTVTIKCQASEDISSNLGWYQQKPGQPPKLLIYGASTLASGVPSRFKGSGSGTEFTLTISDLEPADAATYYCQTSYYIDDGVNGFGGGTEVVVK", "EC50", 0.018],
  ["5D4 (antibody, V domains shown, Rabbit-derived clone; LEM construct: VH + rabbit IgG CH1 + human IgG1 CH2-CH3) VH: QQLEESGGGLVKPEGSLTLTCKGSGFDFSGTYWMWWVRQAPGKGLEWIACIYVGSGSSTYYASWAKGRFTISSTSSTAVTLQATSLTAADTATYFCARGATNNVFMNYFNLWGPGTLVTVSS VL: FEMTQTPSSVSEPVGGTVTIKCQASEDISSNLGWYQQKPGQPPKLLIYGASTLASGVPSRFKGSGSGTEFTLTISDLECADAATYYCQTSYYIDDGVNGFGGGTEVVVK", "EC50", 0.016]
]}

Read the next record carefully.
What EC50 value was documented for this binder, 74F11/15F5 (antibody, human IgG1, V domains shown, LEM construct: VH + rabbit IgG CH1 + human IgG1 CH2-CH3) VH: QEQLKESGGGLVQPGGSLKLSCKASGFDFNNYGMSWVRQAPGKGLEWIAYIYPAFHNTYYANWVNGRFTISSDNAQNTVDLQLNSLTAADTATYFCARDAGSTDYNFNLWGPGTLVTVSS VL: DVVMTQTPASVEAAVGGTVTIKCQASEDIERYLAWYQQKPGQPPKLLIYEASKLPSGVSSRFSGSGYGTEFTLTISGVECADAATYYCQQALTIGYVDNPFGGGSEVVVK ? 0.013

Sourced from patent US20250206841A1
